Assay: ATG_Oct_MLP_CIS: Attagene CIS-FACTORIAL HepG2 Assay for human Octamer-Binding Transcription Factor (Oct) (AID 2282993)
Details: HepG2 Attagene cis-factorial Oct reporter, mRNA; actives raise or lower the signal
The source made the active and inactive calls. Rule for the calls: active = hit-call score of the fitted dose curve at least 0.9, where 1 is the maximum; inactive = score below 0.9.
Outcomes you can answer with include only these: active, inactive

Would you please look over these solved cases?
CC1=C(C)S(=O)(=O)CCS1(=O)=O    inactive
Cc1ccc(C(C)(C)C)c(O)c1    active
CC(C)(C)c1ccccc1    inactive
Cc1occc(=O)c1O    inactive
CCc1nc(N)nc(N)c1-c1ccc(Cl)cc1    active

Q: Called result for O=C(Oc1ccccc1)c1cccc(C(=O)Oc2ccccc2)c1
Result: inactive

Q: Called result for O=Cc1ccccc1C=O
Result: inactive

Q: Called result for Cn1cnc2c1c(=O)[nH]c(=O)n2C
Result: inactive

###

Read-out: Bcl-2 (BAX) gene, BAX (gene 581)
Experiment: LTEA_HepaRG_BAX: Life Technologies and Expression Analysis (LTEA) Assay for Bcl-2 (BAX) gene using HepaRG (AID 2283470)
Conditions: mRNA level, 48 h; actives raise or lower the signal
Calls of active or inactive are those of the source. The calls were made as follows: active = hit-call score of the fitted dose curve at least 0.9, where 1 is the maximum; inactive = score below 0.9.
Outcomes you can answer with include only these: Yes = active, No = inactive

Q: Called result for CCCCOC(=O)CCCCC(=O)OCCCC
Result: No

###

Read-out: Matrix Metallopeptidase 1 (MMP1), MMP1 (gene 4312)
Assay: BSK_hDFCGF_MMP1: BioMAP Diversity Plus: hDFCGF Assay for Matrix Metallopeptidase 1 (MMP1) Biomarker Activity (AID 2283064)
Conditions: primary human foreskin fibroblasts; actives raise or lower the signal
Calls of active or inactive are those of the source. Rule for the calls: active = hit-call score of the fitted dose curve at least 0.9, where 1 is the maximum; inactive = score below 0.9.
Outcomes you can answer with include only these: active, inactive

CC(C)OC(=O)C(C)(C)Oc1ccc(C(=O)c2ccc(Cl)cc2)cc1    inactive
N[C@@H](Cc1c[nH]c2ccccc12)C(=O)O    inactive
Cc1c(C)c2c(c(C)c1O)CCC(C)(COc1ccc(CC3SC(=O)NC3=O)cc1)O2 (configuration not stated)    active
CCC(C)N(C)C(=O)c1cc2ccccc2c(-c2ccccc2Cl)n1 (configuration not stated)    inactive
Cn1cnc2c1c(=O)[nH]c(=O)n2C    inactive
O=C(NS(=O)(=O)/C=C/c1cccs1)c1ccc(F)cc1Br    inactive
Cc1ccc(-c2cc(C(F)(F)F)nn2-c2ccc(S(N)(=O)=O)cc2)cc1    inactive
O=C(N[C@@H](c1ccccc1)[C@@H]1CCCCN1)c1cccc(C(F)(F)F)c1Cl    inactive
Cc1cc(Cc2ccc(N)c(C)c2)ccc1N    inactive
Cc1ccc(C(C)(C)C)c(O)c1    inactive

Next up:
Q: Called result for CCCC(=O)O
Result: inactive

###

Assay: CCTE_Shafer_MEA_acute_network_burst_percentage: CCTE's Neural Acute Assay for Percentage of Network Bursts, Shafer Lab (AID 2284022);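 note: curves fitted for loss so actives lower network burst percentage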
Calls of active or inactive are those of the source. The calls were made as follows: active = hit-call score of the fitted dose curve at least 0.9, where 1 is the maximum; inactive = score below 0.9.
Outcomes you can answer with include only these: True = active, False = inactive

Would you please look over these solved cases?
O=C1OC(c2ccc(O)cc2)(c2ccc(O)cc2)c2ccccc21    True
CC1=C(C)S(=O)(=O)CCS1(=O)=O    False
COc1ccc(OC(F)(F)F)cc1CN[C@H]1CCCN[C@H]1c1ccccc1    True
OCC(CO)n1cnc(-c2ccc(F)cc2)c1-c1ccnc(Oc2ccccc2)n1    False
CC(C)COC(=O)CCCCC(=O)OCC(C)C    False
CCCCC(CC)COP(=O)(OCC(CC)CCCC)OCC(CC)CCCC (centres undefined)    False
Cc1cc(Cc2ccc(N)c(C)c2)ccc1N    True
CC(C)NCC(O)c1ccc(O)c(O)c1 (centres undefined)    False

Q: Called result for Cc1ccc(-c2cc(C(F)(F)F)nn2-c2ccc(S(N)(=O)=O)cc2)cc1
Result: False

Q: Called result for c1ccc2occc2c1
Result: False

Q: Called result for NC(=Nc1ccccc1)Nc1ccccc1
Result: False

###

Read-out: Transforming Growth Factor (TGFB1), TGFB1 (gene 7040)
Assay: LTEA_HepaRG_TGFB1: Life Technologies and Expression Analysis (LTEA) Assay for Transforming Growth Factor (TGFB1) Transporter using HepaRG (AID 2283533)
Details: mRNA level, 48 h; actives raise or lower the signal
Procedure: LTEA_HepaRG is a cell based, multiplexed-readout assay that uses HepaRG, a human liver cell line, with measurements taken at 48 hours after chemical dosing on a 96-well plate.LTEA_HepaRG_TGFB1 is one of 102 assay component(s) measured in the LTEA HepaRG cell culture assay. It is a marker of Cell proliferation, survival, death.Data from the assay component LTEA_HepaRG_TGFB1 was analyzed into 1 endpoint. […]
Active and inactive are the calls of the source. How the source made its calls: active means hit-call score of the fitted dose curve at least 0.9, where 1 is the maximum; inactive means score below 0.9.
attribute measured: AC50

Oc1ccc(O)cc1    inactive
CC(=O)S[C@H](C(=O)N[C@H]1Cc2ccccc2[C@H]2CCC[C@@H](C(=O)O)N2C1=O)C(C)C    inactive
CC(C)(C)c1ccccc1    inactive
CN(C)CCCN(C)CCCN(C)C    inactive
CCCCC(CC)COC(=O)CCCCCCCC(=O)OCC(CC)CCCC (configuration not stated)    inactive
CO[C@@H]1COCC[C@@H]1N[C@@H]1CC[C@@](C(=O)N2CCc3ncc(C(F)(F)F)cc3C2)(C(C)C)C1    inactive
CCCCCCCCCCCCCCCCO    inactive
CC(=O)O    inactive
Cc1occc(=O)c1O    inactive
O=C(O)c1cccnc1    inactive

Moving on to another compound below.
Q: What measured AC50 goes with CC(=O)[C@@]1(O)CC[C@H]2[C@@H]3CCC4=CC(=O)CC[C@]4(C)[C@H]3CC[C@@]21C ?
Result: inactive

###

Test: BSK_3C_VCAM1: BioMAP Diversity Plus: 3C Assay for Vascular cell adhesion molecule 1 (VCAM1) Biomarker Activity (AID 2282999)
Conditions: BioMAP 3C HUVEC, VCAM1 ELISA, cytokine-stimulated; actives raise or lower the signal
Calls of active or inactive are those of the source. Rule for the calls: active = hit-call score of the fitted dose curve at least 0.9, where 1 is the maximum; inactive = score below 0.9.
Outcomes you can answer with include only these: label 1 for active, label 0 for inactive

Would you please look over these solved cases?
O=[Si]=O    label 0
O=Cc1ccccc1C=O    label 0
CC(=O)S[C@H](C(=O)N[C@H]1Cc2ccccc2[C@H]2CCC[C@@H](C(=O)O)N2C1=O)C(C)C    label 0

Q: Called result for CC(C)COC(=O)CCCCC(=O)OCC(C)C
Result: label 0

Q: Called result for CCCCCCCCCC[N+](C)(C)[O-]
Result: label 0

Q: Called result for CN(C)CCCN(C)CCCN(C)C
Result: label 0

Q: Called result for O=C1OC(c2ccc(O)cc2)(c2ccc(O)cc2)c2ccccc21
Result: label 1

###

Assay: CEETOX_H295R_CORTISOL: CeeTox H295R High-throughput Steroidogenesis Assay for Cortisol (AID 2283438);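 note: cortisol secreted into medium quantified by LC-MS/MS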
Details: actives raise or lower the signal
Calls of active or inactive are those of the source. How the source made its calls: active means hit-call score of the fitted dose curve at least 0.9, where 1 is the maximum; inactive means score below 0.9.
attribute measured: AC50

CC1=C(C)S(=O)(=O)CCS1(=O)=O    inactive
S=c1[nH]c2ccccc2s1    inactive
O=C1NC(=O)C(c2ccccc2)(c2ccccc2)N1    26.6 µM (active)
O=C(Oc1ccccc1)c1cccc(C(=O)Oc2ccccc2)c1    inactive
CCCCCCCCCC[N+](C)(C)[O-]    inactive

Q: What measured AC50 goes with CC(C)(O)c1ccc(CNC(=O)c2cccnc2Oc2ccc(F)cc2)cc1 ?
Result: 64.9 µM (active)

Q: What measured AC50 goes with O=C(O)CN(CC(=O)O)CC(=O)O ?
Result: inactive

###

Assay: APR_HepG2_CellCycleArrest_24hr: Apredica 24-hour HepG2 Assay for Cell Cycle Arrest (AID 2282905);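 note: cell cycle arrest scored as ratio of 2N to 4N nuclear DNA content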
Settings: imaging, actives raise or lower the signal
Method: APR_HepG2_24hr is a cell-based, multiplexed-readout assay that uses HepG2, a human liver cell line, with measurements taken at 24 hours after chemical dosing in a 384-well plate.APR_HepG2_CellCycleArrest_24hr is one of 10 assay component(s) measured or calculated from the APR_HepG2_24hr assay. […] This assay endpoint, APR_HepG2_CellCycleArrest_24hr, was analyzed with bidirectional fitting relative to DMSO as the negative control and baseline of activity. […]
Activity calls are given as the source filed them. The calls were made as follows: active = hit-call score of the fitted dose curve at least 0.9, where 1 is the maximum; inactive = score below 0.9.
Outcomes you can answer with include only these: active, inactive

Would you please look over these solved cases?
CC(=O)O    active
C/C=C/c1ccc(OC)cc1    inactive

Q: Called result for CC(C)c1cccc(C(C)C)c1NC(=O)NS(=O)(=O)c1cc(C(C)(C)O)co1
Result: inactive

Q: Called result for NC=O
Result: inactive

###

Read-out: Transforming growth factor beta 1 (TGFb1), TGFB1 (gene 7040)
Assay: BSK_BE3C_TGFb1: BioMAP Diversity Plus: BE3C Assay for Transforming growth factor beta 1 (TGFb1) Biomarker Activity (AID 2283036)
Conditions: primary human bronchial epithelial cells; actives raise or lower the signal
Calls of active or inactive are those of the source. Rule for the calls: active = hit-call score of the fitted dose curve at least 0.9, where 1 is the maximum; inactive = score below 0.9.
Outcomes you can answer with include only these: T (active), F (inactive)

Q: Called result for O=C1OC(c2ccc(O)cc2)(c2ccc(O)cc2)c2ccccc21
Result: F

Q: Called result for N[C@@H](Cc1c[nH]c2ccccc12)C(=O)O
Result: F

Q: Called result for CC(=O)O[C@]1(C(C)=O)CC[C@H]2[C@@H]3C=C(Cl)C4=CC(=O)[C@@H]5C[C@@H]5[C@]4(C)[C@H]3CC[C@@]21C
Result: T

Q: Called result for CCCCCCCCCCCCCCOS(=O)(=O)O
Result: T

Q: Called result for CCCCCCCCCCCCCCCCO
Result: F

Each recorded value in this set is attributed to PubChem BioAssay (EPA / NIEHS).
